Test Summary: Photoswitching between E and Z (UV-vis, photostationary state)
Assay type: physicochemical
Particulars: dilute solution; compound 1 in acetonitrile, compound 2 in methanol
Reported Metric: % E after irradiation at 430 nm (PSS) (% E)

Smiles Representation: CN(CCCNC(=O)c1ccc(C(=O)NCCCN(C)CCc2ccc(/N=N/c3ccccc3)cc2)cc1)CCc1ccc(/N=N/c2ccccc2)cc1
Value Reported: 82

Smiles Representation: CN(CCCNC(=O)c1ccc(-c2ccc(C(=O)NCCCN(C)CCc3ccc(N=Nc4ccccc4)cc3)cc2)cc1)CCc1ccc(N=Nc2ccccc2)cc1
Value Reported: 84

Smiles Representation: CN(CCCNC(=O)c1ccc(C(=O)NCCCN(C)CCc2ccc(N=Nc3ccccc3)cc2)cc1)CCc1ccc(N=Nc2ccccc2)cc1
Value Reported: 82

Smiles Representation: CN(CCCNC(=O)c1ccc(-c2ccc(C(=O)NCCCN(C)CCc3ccc(/N=N/c4ccccc4)cc3)cc2)cc1)CCc1ccc(/N=N/c2ccccc2)cc1
Value Reported: 84
